Field: pKi. Provide a value for each of the compounds that follow.
pKi: −log10 of the molar value.

Item: COc1ccc2c(c1)C(CCCN1CCCCC1)CCC2 (stereo not given) Test system: UniProt P19327 Read-out: pKi Value: ?
< 5.84

Param readout= pKi; system= UniProt P19327; entry= COc1cccc2c1CCCC2CCCN1CCCC(C)(C)C1 (stereo not given) ; returns value.
Sequence (P19327 whole entry): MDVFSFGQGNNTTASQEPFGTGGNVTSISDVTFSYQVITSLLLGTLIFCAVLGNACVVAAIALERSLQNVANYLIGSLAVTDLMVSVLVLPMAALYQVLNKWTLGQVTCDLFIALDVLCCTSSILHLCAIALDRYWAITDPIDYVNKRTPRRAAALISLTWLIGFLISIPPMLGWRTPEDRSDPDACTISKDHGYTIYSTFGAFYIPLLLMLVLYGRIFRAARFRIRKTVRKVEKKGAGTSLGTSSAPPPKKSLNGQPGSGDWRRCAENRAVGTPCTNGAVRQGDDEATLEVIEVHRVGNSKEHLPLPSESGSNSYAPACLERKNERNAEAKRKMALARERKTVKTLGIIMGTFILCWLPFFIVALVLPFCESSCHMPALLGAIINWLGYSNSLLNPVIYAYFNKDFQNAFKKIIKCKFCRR
6.05

Find the measured pKi: item c1ccc2c(c1)CCCC2CCCCN1CCCCC1 (stereo not given) , target or system UniProt P19327.
< 5.84

// map c1ccc(CC2CCN(CCCCC3CCCc4ccccc43)CC2)cc1 (stereo not given) to recorded pKi (system: UniProt P19327)
6.55

# get_value(readout= pKi, system= UniProt P19327) for COc1cccc2c1CCCC2CCCN1CCC(Cc2ccccc2)CC1 (stereo not given)
> 9.85

Provide the documented pKi with UniProt P19327 as the system for C1=C(CCCCN2CCCCC2)c2ccccc2CC1
< 5.84

Request: pKi, test system UniProt P19327, entry COc1cccc2c1CCCC2CCCN1CCCCC1 (stereo not given)
< 5.84

What pKi appears in the records for this compound with UniProt P19327? CC1(C)CCCN(CCCCC2CCCc3ccccc32)C1 (stereo not given)
< 5.84

# returns recorded pKi (system: UniProt P19327) for c1ccc2c(c1)CCCC2CCCN1CCCCC1 (stereo not given)
< 5.84

Please tell me: pKi of CC1(C)CCCN(CCCC2CCCc3cscc32)C1 (stereo not given) , system UniProt P19327?
< 5.84

---

Target: Serotonin 2 (5-HT2) receptor (Rattus norvegicus) (UniProt P30994+P08909+P14842)
Sequence (P08909 whole entry, looked up): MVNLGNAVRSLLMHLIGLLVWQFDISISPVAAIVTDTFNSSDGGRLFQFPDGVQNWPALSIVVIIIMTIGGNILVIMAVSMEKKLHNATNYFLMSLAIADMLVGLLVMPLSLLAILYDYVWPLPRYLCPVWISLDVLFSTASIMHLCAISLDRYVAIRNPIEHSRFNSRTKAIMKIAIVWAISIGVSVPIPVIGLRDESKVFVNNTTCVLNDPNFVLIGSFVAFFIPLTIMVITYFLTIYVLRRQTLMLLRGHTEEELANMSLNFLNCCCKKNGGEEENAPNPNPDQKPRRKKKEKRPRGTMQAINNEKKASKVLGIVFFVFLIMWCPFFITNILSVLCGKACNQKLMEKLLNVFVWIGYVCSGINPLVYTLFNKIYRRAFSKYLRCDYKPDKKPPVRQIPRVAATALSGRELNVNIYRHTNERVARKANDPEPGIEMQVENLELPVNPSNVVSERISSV
Sequence (P14842 whole entry, looked up): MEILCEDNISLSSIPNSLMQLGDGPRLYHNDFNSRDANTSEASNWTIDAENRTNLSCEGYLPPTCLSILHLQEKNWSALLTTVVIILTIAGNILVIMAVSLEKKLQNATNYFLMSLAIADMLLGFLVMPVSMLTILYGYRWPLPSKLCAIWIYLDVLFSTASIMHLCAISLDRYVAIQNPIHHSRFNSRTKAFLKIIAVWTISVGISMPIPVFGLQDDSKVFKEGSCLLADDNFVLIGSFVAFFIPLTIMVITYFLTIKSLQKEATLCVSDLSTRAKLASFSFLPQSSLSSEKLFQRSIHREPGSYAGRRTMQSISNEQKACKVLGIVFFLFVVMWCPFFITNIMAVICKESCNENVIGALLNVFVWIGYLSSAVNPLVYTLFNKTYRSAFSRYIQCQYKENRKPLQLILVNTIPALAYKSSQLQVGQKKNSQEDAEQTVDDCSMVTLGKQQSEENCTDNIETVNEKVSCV
Sequence (P30994 whole entry, looked up): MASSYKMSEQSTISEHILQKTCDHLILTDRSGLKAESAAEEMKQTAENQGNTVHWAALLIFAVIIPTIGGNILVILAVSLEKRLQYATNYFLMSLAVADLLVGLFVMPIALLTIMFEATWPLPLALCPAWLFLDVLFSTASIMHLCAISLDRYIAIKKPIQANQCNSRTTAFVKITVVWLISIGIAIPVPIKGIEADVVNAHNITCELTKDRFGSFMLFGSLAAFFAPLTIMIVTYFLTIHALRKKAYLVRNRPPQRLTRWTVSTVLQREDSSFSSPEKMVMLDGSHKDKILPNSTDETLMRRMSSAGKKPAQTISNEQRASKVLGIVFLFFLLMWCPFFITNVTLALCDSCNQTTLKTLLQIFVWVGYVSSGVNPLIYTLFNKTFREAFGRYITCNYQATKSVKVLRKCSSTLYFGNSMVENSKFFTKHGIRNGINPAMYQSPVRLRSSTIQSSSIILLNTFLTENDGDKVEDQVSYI
Assay: Percentage specific displacement of radioligand [3H]ketanserin from 5-hydroxytryptamine 2 receptor
Type: protein assay
Parameters: concentration or dose not given beside the values
Outcome measure: Displacement (%)
# number only, unit % dropped from output

So what's the measured Displacement for this one? CCCN(CCC)CCCC1CCCc2ccccc21 (stereo unspecified)
51

I would be grateful if you could share the reported Displacement for CCCN(CCC)CCCCC1CCCc2ccccc21 (stereo unspecified) .
66

Bench note: what Displacement did c1ccc2c(c1)CCCC2CCCCN1CCCCC1 (stereo unspecified) show?
64

Displacement lookup needed for CCCN(CCC)CCCCC1=CCCc2ccccc21 , thanks.
60

# get_value(readout='Displacement', item= c1ccc2c(c1)CCCC2CCCN1CCCCC1 (stereo unspecified) )
21

Given C1=C(CCCCN2CCCCC2)c2ccccc2CC1 , state its recorded Displacement.
12

---

Molecular target: D(2) dopamine receptor (Rattus norvegicus)
Test: Binding affinity of compound towards Dopamine receptor D2 was determined in rat striatal homogenate using [3H]- spiperone as radioligand
Outcome measure: Ki (nM)
Please respond with the number in nM and leave the unit unwritten.

Dear colleague, I am looking for the recorded Ki of the following molecule: COc1cccc2c1CCCC2CCCN1CCC(Cc2ccccc2)CC1 (stereo unspecified)
1300

---

Target: D(2) dopamine receptor (Rattus norvegicus, UniProt P61169)
Sequence (P61169 whole entry): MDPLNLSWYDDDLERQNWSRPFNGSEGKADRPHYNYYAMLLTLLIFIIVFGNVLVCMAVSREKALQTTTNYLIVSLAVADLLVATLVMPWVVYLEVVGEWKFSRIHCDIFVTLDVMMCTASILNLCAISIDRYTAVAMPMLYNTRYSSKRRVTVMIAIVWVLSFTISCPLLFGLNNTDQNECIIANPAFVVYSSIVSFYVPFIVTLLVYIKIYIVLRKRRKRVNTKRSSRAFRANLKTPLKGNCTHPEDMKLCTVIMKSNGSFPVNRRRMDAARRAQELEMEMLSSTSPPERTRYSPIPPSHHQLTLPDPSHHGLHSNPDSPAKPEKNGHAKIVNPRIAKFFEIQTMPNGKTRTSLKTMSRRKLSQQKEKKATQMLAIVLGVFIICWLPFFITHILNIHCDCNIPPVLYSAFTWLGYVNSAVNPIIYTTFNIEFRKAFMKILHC
Test: Binding affinity was tested on Dopamine receptor D2 using radioligand [3H]spiroperidol
Hi there, I'd appreciate the recorded Ki for every entry that follows.

Any idea what its Ki is? The molecule is CC1(C)CCCN(CCCCC2CCCc3ccccc32)C1 (centres undefined)
> 10 µM

Any idea what its Ki is? The molecule is COc1ccc2c(c1)C(CCCN1CCCCC1)CCC2 (centres undefined)
> 1.85 µM

What value of Ki has been recorded for this entry: COc1cccc2c1CCCC2CCCN1CCCC(C)(C)C1 (centres undefined)
> 10 µM

Please report the recorded Ki for COc1cccc2c1CCCC2CCCN1CCCCC1 (centres undefined) .
> 1.85 µM
